# experimental-protocol: Intrinsic clearance in human microsome assessed as rate of metabolism
# Type: ADME
# measurement-conditions: microsomes

structure-notation | microsomal CLint / µL/min/mg
C[C@@H]1Cc2c(ccc3[nH]ncc23)[C@@H](c2ccc(NC3CN(CCCF)C3)cn2)N1CC(F)F | 28
FCCCN1CC(Nc2ccc([C@@H]3c4ccc5[nH]ncc5c4C[C@@H](C(F)F)N3CC(F)F)nc2)C1 | 34
C[C@@H]1Cc2c(ccc3[nH]ncc23)[C@@H](c2ccc(NC3CN(CCCF)C3)c(F)n2)N1CC(F)(F)F | 20
C[C@@H]1Cc2c(ccc3[nH]ncc23)[C@@H](c2ncc(NC3CN(CCCF)C3)cc2F)N1CC(F)(F)CF | 26
C[C@@H]1Cc2c(ccc3[nH]ncc23)[C@@H](c2ncc(NC3CN(CCCF)C3)cc2F)N1CC(F)(F)F | 19
C[C@@H]1Cc2c(cc(F)c3[nH]ncc23)[C@@H](c2ccc(NC3CN(CCCF)C3)cn2)N1CC(F)(F)F | 19
